Data origin: patent US20070060521A1

target: STAT3 with DNA-binding activity in vitro (activated STAT3 dimers); assay: cell-based or functional assay
Non-standard residues stand in square brackets, D forms with d. No end group written: not given here. pY = N[C@@H](Cc1ccc(OP(=O)(O)O)cc1)C(=O)O
measureName: IC50, Disruption of STAT3 DNA-binding Activity (µM)

Previously resolved entries follow.
| binder | numericValue |
| --- | --- |
| P[pY]LA [PY*LA (SEQ ID NO:35)] | 326 |
| A[pY]LK [AY*LK (SEQ ID NO:30)] | 365 |
| Ac-P[pY]LKTK [Ac-PY*LKTK (SEQ ID NO:32)] | 212 |

1. Ac-P[pY]LK [Ac-PY*LK (SEQ ID NO:34)]
2. Ac-[pY]-Leu-Lys [Ac-Y*LK (SEQ ID NO:31)]
3. P[pY]LKTK [PY*LKTK (SEQ ID NO:20)]
Ranking field: IC50, Disruption of STAT3 DNA-binding Activity; order: falling. Answer format: the labels, in the requested order.
2, 3, 1
(2: 421 µM, 3: 280 µM, 1: 156 µM)
